target: human SSTR2 (Homo sapiens (Human)); test: Radioligand binding assay, CHO cell membranes expressing recombinant human SSTR2
Sequence (P30874 whole entry): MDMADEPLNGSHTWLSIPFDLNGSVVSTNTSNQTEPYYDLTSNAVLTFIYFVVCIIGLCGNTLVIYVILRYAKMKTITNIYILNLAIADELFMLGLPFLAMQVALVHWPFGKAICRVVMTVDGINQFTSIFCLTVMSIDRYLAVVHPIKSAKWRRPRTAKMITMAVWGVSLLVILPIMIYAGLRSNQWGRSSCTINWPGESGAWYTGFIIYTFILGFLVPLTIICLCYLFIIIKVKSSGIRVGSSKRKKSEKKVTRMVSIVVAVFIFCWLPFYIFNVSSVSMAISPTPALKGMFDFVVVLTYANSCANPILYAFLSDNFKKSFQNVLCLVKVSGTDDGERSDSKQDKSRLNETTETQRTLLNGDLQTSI
Reported Ki values for a set of compounds

Please review the following examples before continuing.
Please give measured Ki of the following entry: Cc1cccc2c(C(C)(C)NC(=O)[C@H]3[C@@H]4CNC[C@@H]43)n[nH]c12 [Example 93]
> 9.63 µM

Please give measured Ki of the following entry: CC(C)(NC(=O)[C@H]1[C@@H]2CNC[C@@H]21)c1ccnc2ccccc12.Cl [Example 21]
> 9.59 µM

Please give measured Ki of the following entry: Cc1cccnc1OCC(C)(C)NC(=O)[C@H]1[C@@H]2CNC[C@@H]21 [Example 47]
> 9.6 µM

Please give measured Ki of the following entry: CC(C)(NC(=O)[C@H]1[C@@H]2CNC[C@@H]21)c1nccc2ccccc12.Cl [Example 24]
> 9.61 µM

Please give measured Ki of the following entry: CC(C)(NC(=O)[C@H]1[C@@H]2CNC[C@@H]21)c1noc2c(F)cccc12 [Example 101]
> 9.6 µM

Please give measured Ki of the following entry: Cc1nc(C(C)(C)NC(=O)[C@H]2[C@@H]3CNC[C@@H]32)c2ccccc2n1 [Example 138]
> 9.63 µM

Please give measured Ki of the following entry: Cn1nc(C(C)(C)NC(=O)[C@H]2[C@@H]3CNC[C@@H]32)c2ccccc21 [Example 49]
> 9.6 µM

Now turn to the next compound.
Please give measured Ki of the following entry: Cc1cc2cccnc2c(C(C)(C)NC(=O)[C@H]2[C@@H]3CNC[C@@H]32)n1 [Example 78]
> 9.63 µM

====

target: human Somatostatin 4 receptor (SSTR4) (Homo sapiens (Human)); assay: cAMP assay with human somatostatin 4 receptor (hSSTR4 expressing H4 cells); format: cell-based; conditions: cAMP assay, read-out: SSTR4 agonism EC50
Sequence (P31391 whole entry): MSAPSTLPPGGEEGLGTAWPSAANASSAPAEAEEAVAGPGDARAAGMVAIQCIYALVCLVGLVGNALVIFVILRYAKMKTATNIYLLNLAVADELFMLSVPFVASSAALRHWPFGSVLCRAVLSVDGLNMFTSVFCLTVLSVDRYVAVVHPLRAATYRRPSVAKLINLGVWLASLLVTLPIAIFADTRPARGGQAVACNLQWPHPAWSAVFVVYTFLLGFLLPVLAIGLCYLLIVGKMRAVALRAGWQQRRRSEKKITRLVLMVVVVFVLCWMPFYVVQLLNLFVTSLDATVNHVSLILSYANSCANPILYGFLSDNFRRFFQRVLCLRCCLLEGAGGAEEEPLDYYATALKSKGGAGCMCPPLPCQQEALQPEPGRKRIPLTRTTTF
pEC50: −log10 of the molar value.
Use YES when the recorded pEC50 is no lower than 8; use NO when it is lower.

Answered cases to consult:
Quick check: does CC(NC(=O)[C@H]1[C@@H]2CNC[C@@H]21)c1nn(C)c2c(Cl)cccc12 (stereo partly shown) [Example 114] have pEC50 greater than or equal to 8?
YES

Quick check: does CC(NC(=O)[C@H]1[C@@H]2CNC[C@@H]21)c1nn(C)c2c(Cl)cccc12 (single isomer, unassigned) [Example 115] have pEC50 greater than or equal to 8?
NO

Quick check: does Cc1cccc2c(C(C)NC(=O)[C@H]3[C@@H]4CNC[C@@H]43)nn(C)c12 (single isomer, unassigned) [Example 118] have pEC50 greater than or equal to 8?
NO

Further cases:
Quick check: does Cc1ncc(C(C)(C)NC(=O)[C@H]2[C@@H]3CNC[C@@H]32)c2ccccc12 [Example 80] have pEC50 greater than or equal to 8?
YES

Quick check: does CC(C)(NC(=O)[C@H]1[C@@H]2CNC[C@@H]21)c1ncc2c(C3CC3)cccn12 [Example 146] have pEC50 greater than or equal to 8?
YES

Quick check: does Cc1cccnc1OCC(C)(C)NC(=O)[C@H]1[C@@H]2CNC[C@@H]21 [Example 47] have pEC50 greater than or equal to 8?
YES

====

molecular target: human Somatostatin 4 receptor (SSTR4) (Homo sapiens (Human)); test: cAMP assay with human somatostatin 4 receptor (hSSTR4 expressing H4 cells); assay type: cell-based; conditions: cAMP assay, read-out: SSTR4 agonism EC50
quantity: EC50 (nM)
Report the value in nM with no unit label.

Please review the following examples before continuing.
Please give measured EC50 of the following entry: CC(C)(COc1nccc2ccccc12)NC(=O)[C@H]1[C@@H]2CNC[C@@H]21 [Example 56]
5.5

Please give measured EC50 of the following entry: CC(C)(NC(=O)[C@H]1[C@@H]2CNC[C@@H]21)c1noc2c(C(F)(F)F)cccc12 [Example 102]
2.3

Please give measured EC50 of the following entry: Cc1cccnc1CCC(C)(C)NC(=O)[C@H]1[C@@H]2CNC[C@@H]21 [Example 30]
202

Further cases:
Please give measured EC50 of the following entry: Cn1nc(C(C)(C)NC(=O)[C@H]2[C@@H]3CNC[C@@H]32)c2c1CCCC2 [Example 176]
1.2

Please give measured EC50 of the following entry: Cc1cccc2c(C(C)NC(=O)[C@H]3[C@@H]4CNC[C@@H]43)nn(C)c12 (some centres unmarked) [Example 117]
6.1

Please give measured EC50 of the following entry: CC(C)(NC(=O)[C@H]1[C@@H]2CNC[C@@H]21)c1nc(C2CC2)nc2ccccc12 [Example 141]
3.3

Please give measured EC50 of the following entry: CC(NC(=O)[C@H]1[C@@H]2CNC[C@@H]21)c1nn(C)c2ccccc12 (some centres unmarked) [Example 111]
14.5

Please give measured EC50 of the following entry: CC(C)(NC(=O)[C@H]1[C@@H]2CNC[C@@H]21)c1ccc2ccccc2n1 [Example 34]
41.1

// data source = patent US9789082B2
